Examples of compounds with documented GI50 follow.
system: SNB-19 CNS; assay: NCI tumour cell line growth inhibition, 48 h

# annotated cases, reported GI50 shown
- Compound: "CCOC(=O)c1noc2c1CCc1c-2cn(Cc2ccc(OC)cc2)c1-c1cc(OC)c(OC)c(OC)c1"
  GI50: "668 nM"
- Compound: "CC(C)=CC[C@@H]1CC2(CC=C(C)C)C(=O)C(OC3(C(=O)c4ccccc4)C(=O)C4(CC=C(C)C)C[C@@H](CC=C(C)C)C(C)(C)C(CC=C(C)C)(C4=O)C3=O)(C(=O)c3ccccc3)C(=O)C(CC=C(C)C)(C2=O)C1(C)C (stereo partly drawn)"
  GI50: "1640 nM"
- Compound: "CC(C)(C)CC(C)(C)c1ccc(OCCO)cc1"
  GI50: "6.58 µg/mL"
- Compound: "CNC(=O)Oc1cc(C(C)C)ccc1Sc1ccc(C(C)C)cc1OC(=O)NC"
  GI50: "9570 nM"
- Compound: "CCN(Cc1ccc(OC)cc1)c1ccc(CO)c(Cl)c1"
  GI50: "26800 nM"

API: value(readout= GI50, system= SNB-19 CNS, query= CCN1CCN(CCC(=O)Nc2cccc(-n3cc(-c4ccncc4)c(-c4ccc(Cl)c(OC)c4)n3)c2)CC1 )
1080 nM

Quick check: GI50 on SNB-19 CNS, item Cc1c(Cl)cccc1C(=O)Nc1nc2c(s1)CN(C(=O)Nc1cccc(C(F)(F)F)c1)CC2 ?
307 nM

Query the reported GI50 for SNB-19 CNS; item: COc1cc2c(c3oc(-c4ccc(O)cc4)c(O)c(=O)c13)CCC(C)(C)O2
160 nM

---

log10 TGI reference
tested on: LOX IMVI melanoma; assay: NCI tumour cell line growth inhibition, 48 h
Heads up, the numbers here are log10 of TGI in µM units.

Fill in the blank: the reported log10 TGI of COc1cc(/C=C2\CC3C4CC=C5CC(OC(C)=O)CC[C@]5(C)C4CC[C@]3(C)C2=O)ccc1OCCN1CCCC1 (some centres not stated) is ____.
0.41

Need log10 TGI, item CC(=O)c1ccc(Br)cc1NC1=CC(=O)c2ncccc2C1=O
1.28

So what does the record say about log10 TGI for Cc1c(C(Cc2ccccc2N(C)C(=O)/C=C\C(=O)O)c2c[nH]c3ccccc23)c2ccccc2n1C (configuration not stated) ?
1.47

Any idea what its log10 TGI is? The compound is CC(C)=CC[C@@H]1CC2(CC=C(C)C)C(=O)C(OC3(C(=O)c4ccccc4)C(=O)C4(CC=C(C)C)C[C@@H](CC=C(C)C)C(C)(C)C(CC=C(C)C)(C4=O)C3=O)(C(=O)c3ccccc3)C(=O)C(CC=C(C)C)(C2=O)C1(C)C (some centres not stated)
0.51

What log10 TGI value was documented for this compound, O=C(CCc1nnc2s/c(=C\c3ccc([N+](=O)[O-])cc3)c(=O)n12)Nc1ccc(Cl)c(Cl)c1 ?
1.50

---

system: MDA-MB-435; assay: NCI tumour cell line growth inhibition, 48 h
Everything with TGI lower than 40 µM is False; everything else, including exactly 40 µM, is True.

Example entries begin here.
- Compound: "C=C(CO)C(=O)OC1CC(=C)C2CC(O)C(C)C2C2OC(=O)C(=C)C12 (stereo not drawn)"
  Class: "True"
- Compound: "Sc1cccc2cccnc12"
  Class: "False"
- Compound: "COC(=O)C(Cc1ccccc1)NC(=O)CSc1nnc(COc2ccc(Cl)cc2)n1-c1ccccc1 (stereo not drawn)"
  Class: "True"
- Compound: "O=c1nc2n(-c3cccc(Cl)c3)c3ccc([N+](=O)[O-])cc3cc-2c(=O)[nH]1"
  Class: "False"
- Compound: "NC(N)=N/N=C/c1c(-c2ccccc2[N+](=O)[O-])nc2sccn12"
  Class: "False"

Below: the item to evaluate.
Entry C=CC(=O)NCCC(=O)OCn1cc(F)c(=O)[nH]c1=O : is its TGI no less than 40 µM?
True

---

test system: SF-268 CNS; assay: NCI tumour cell line growth inhibition, 48 h
Measure: TGI

- Compound: "CCOC(=O)CC1=N/C(=N/C(=N)N[N+](=O)[O-])SC1"
  TGI: "> 100 µM"
- Compound: "C#CCOC(=O)C(N)CC(N)=O (centres undefined)"
  TGI: "> 100 µM"
- Compound: "CS(=O)(=O)OCCN(CCOS(C)(=O)=O)c1ccc(C=Nc2ccc(-c3csc(COc4ccccc4)n3)cc2)cc1"
  TGI: "14.6 µM"
- Compound: "CCNC1=C(NC(=O)c2ccc(F)cc2)C(=O)c2ccccc2C1=O"
  TGI: "> 100 µM"
- Compound: "COc1nc(NC2OC(COC(C)=O)C(OC(C)=O)C(OC(C)=O)C2OC(C)=O)c(N=CC=Nc2c(NC3OC(COC(C)=O)C(OC(C)=O)C(OC(C)=O)C3OC(C)=O)nc(OC)[nH]c2=O)c(=O)[nH]1 (centres undefined)"
  TGI: "> 100 µM"
- Compound: "O=S(=O)(NCCCNc1cc(-c2cn(-c3ccccc3)nc2-c2cccc(O)c2)ccn1)c1ccc(C(F)(F)F)cc1"
  TGI: "4.95 µM"
- Compound: "COc1ccc(C(=O)C(C(=O)CCC(=O)Nc2ccc(Cl)c(Cl)c2)c2ccc(OC)cc2)cc1 (centres undefined)"
  TGI: "> 100 µM"
- Compound: "CCOc1ccc(N(C)c2ccc(/C=C/C3=[N+](C)c4ccccc4C3(C)C)cc2)cc1"
  TGI: "2.65 µM"

We next turn to a different compound, shown below.
GET /values?readout=TGI&item= COC(=NC(C)C)NC(C)C
> 100 µM

---

test system: UO-31 renal; assay: NCI tumour cell line growth inhibition, 48 h
# key: entry, value: TGI

- Molecule: "Cn1cc(C2NC(=O)c3ccccc3N2)c2ccccc21 (stereo not given)"
  Target system: "UO-31 renal"
  Meas value: "> 100 µM"
- Molecule: "CN1C2CCC1/C(=C/c1cccc3c1OCO3)C(=O)/C2=C\\c1cccc2c1OCO2"
  Target system: "UO-31 renal"
  Meas value: "> 100 µM"
- Molecule: "O=P1(NCCCl)OCCCN1CCCl (stereo not given)"
  Target system: "UO-31 renal"
  Meas value: "441 µM"
- Molecule: "OCC(O)COCn1cc(Cn2ncc3c(SCc4ccccc4)ncnc32)nn1 (stereo not given)"
  Target system: "UO-31 renal"
  Meas value: "> 100 µM"
- Molecule: "Clc1ccc(OCC2NC3CCC2CC3)cn1 (stereo not given)"
  Target system: "UO-31 renal"
  Meas value: "6.06 µM"
- Molecule: "O=C(O)c1cc(CCc2ccc(O)c(O)c2)ccc1O"
  Target system: "UO-31 renal"
  Meas value: "> 100 µM"
- Molecule: "COC(=O)C(Cc1ccccc1)NC(=O)CSc1nnc(COc2ccc(Cl)cc2)n1-c1ccccc1 (stereo not given)"
  Target system: "UO-31 renal"
  Meas value: "3.34 µM"
- Molecule: "O=C1c2cc(Br)ccc2-c2ccc3c4ccc5c6c(ccc(c7ccc1c2c73)c64)C(=O)c1cc(Br)ccc1-5"
  Target system: "UO-31 renal"
  Meas value: "> 100 µM"

What measured TGI goes with CC(C)[Si](OC12CCC(CC1O)CC2CO)(C(C)C)C(C)C (stereo not given) ?
26.8 µM

Any idea what its TGI is? The molecule is CCOC(=O)c1noc2c1CCc1c-2cn(Cc2ccc(OC)cc2)c1-c1cc(OC)c(OC)c(OC)c1
> 100 µM

Query (molecule): Cc1ccc(N)c(S)c1 ; field requested: TGI
26.7 µM

Dear colleague, I am looking for the recorded TGI of the following molecule: NC(N)=N/N=C/c1c(-c2ccccc2[N+](=O)[O-])nc2sccn12
90.3 µM

Requested field: TGI. Item: COc1nc(NC2OC(COC(C)=O)C(OC(C)=O)C(OC(C)=O)C2OC(C)=O)c(N=CC=Nc2c(NC3OC(COC(C)=O)C(OC(C)=O)C(OC(C)=O)C3OC(C)=O)nc(OC)[nH]c2=O)c(=O)[nH]1 (stereo not given)
> 100 µM

---

system: IGROV1 ovarian; assay: NCI tumour cell line growth inhibition, 48 h
Measure: TGI

- Compound: "N#CC(C#N)=c1c(=O)c2c3ccccc3cc3cccc1c32"
  Target system: "IGROV1 ovarian"
  Meas value: "> 100 µM"

Shifting focus to the compound that follows.
Which value of TGI has been reported for COc1cc2cc(NCc3cccc(Cl)c3)nc(C)c2cc1OC in the records?
13.9 µM

---

tested on: UACC-257 melanoma; assay: NCI tumour cell line growth inhibition, 48 h
Measure: TGI

- Compound: "O=C(/C=C/c1ccccc1)NC1C=Nc2ccc([N+](=O)[O-])cc2NC1=O (stereo unspecified)"
  TGI: "> 100 µM"
- Compound: "COC(=O)c1c(O)c(C#N)c2[nH]c3ccccc3n2c1=O"
  TGI: "> 100 µM"
- Compound: "O=c1nc2n(-c3cccc(Cl)c3)c3ccc([N+](=O)[O-])cc3cc-2c(=O)[nH]1"
  TGI: "> 25 µM"
- Compound: "N#CCCNc1nonc1-c1nc2ccccc2n1CC(=O)c1ccc(N)cc1"
  TGI: "> 100 µM"
- Compound: "COC(=O)C(=O)C(C(=O)C(=O)Nc1ccc(Cl)c(Cl)c1)c1nc2ccc(C(=O)c3ccccc3)cc2[nH]c1=O (stereo unspecified)"
  TGI: "> 100 µM"
- Compound: "CN1CCN(Cc2ccc(NC(=O)c3cncc(C#Cc4cnc(N)c5ncccc45)c3)cc2C(F)(F)F)CC1"
  TGI: "5.6 µM"
- Compound: "C=C(CO)C(=O)OC1CC(=C)C2CC(O)C(C)C2C2OC(=O)C(=C)C12 (stereo unspecified)"
  TGI: "32.7 µM"
- Compound: "C=CCN1C(=O)CC2[C@@H]3CCc4cc(O)ccc4C3CC[C@]2(C)C1=O (stereo partly specified)"
  TGI: "> 10 µM"

Look at this compound and give its reported TGI. CC(C)=CCC/C(C)=C/CC/C(C)=C/CSC[C@H](NC(=O)CCCCCN1CCN(C)CC1)C(=O)NC1CCCCCC1
3.63 µM

If you can, please state the reported TGI value of O=C1c2cc(Br)ccc2-c2ccc3c4ccc5c6c(ccc(c7ccc1c2c73)c64)C(=O)c1cc(Br)ccc1-5 .
> 100 µM

Where do the numbers come from? From PubChem BioAssay (NCI).
